# System: TAZ nuclear translocation in SW1990 cells
# run.description: TAZ Nuclear Translocation Assay
# Type: cell-based
# test.parameters: Homo sapiens, 4 hours
pEC50: −log10 of the molar value.
property.measured: pEC50

• O[C@@H]1CC[C@H]1N1CCC2(CCN(c3nc(-c4ccncc4)nc4cnccc34)CC2)C1 (single isomer, unassigned) [Compound 179] = 6.13
• FC(F)(F)c1cncc2nc(-c3ccncc3)nc(N3CCC4(CCNC4)CC3)c12 [Compound 246] = 5.51
• O[C@@H]1COC[C@H]1N1CCC2(CCN(c3nc(-c4ccncc4)nc4cnccc34)CC2)C1 (single isomer, unassigned) [Compound 176] = 5.75

[A] CN1CCC2(CCN(c3nc(-c4ccncc4)nc4cncc(OC5COC5)c34)CC2)C1 [Compound 269]
[B] C[C@@H](CO)N1CCC2(CCN(c3nc(-c4ccncc4)nc4cnccc34)CC2)C1 (single isomer, unassigned) [Compound 104]
Request: Please choose the item with the lower pEC50 value from this pair: A and B Your answer should be the label of the entry you select.
Response: B
(B: 6.35, A: 6.68)

[a] Cc1n[nH]cc1-c1nc(N2CCC3(CC2)CCN(C2CCOC2)C3)c2ccncc2n1 (stereo not shown) [Compound 148]
[b] COc1cncc2nc(-c3ccncc3)nc(N3CCC4(CCNC4)CC3)c12 [Example 233]
Request: Param pair: a , b . Output: the one whose pEC50 is numerically greater. Respond using the label that marks the chosen record.
Response: b
(b: 6.59, a: 6.25)

[P] COc1cncc2nc(-c3c[nH]nc3C)nc(N3CCC4(CCN(C)C4)CC3)c12 [Compound 264]
[Q] CC(C)c1cncc2nc(-c3ccncc3)nc(N3CCC4(CCNC4)CC3)c12 [Example 240]
Request: Hi there! Just curious which has the higher pEC50 between P and Q . State your choice using its label.
Response: P
(P: 6.77, Q: 5.49)

[A] Cc1n[nH]cc1-c1nc(N2CCC3(CCN(C)C3)CC2)c2cc(Cn3cc(Cl)cn3)ncc2n1 [Compound 190]
[B] CNc1cc2c(N3CCC4(CCN(C)C4)CC3)nc(-c3ccncc3)nc2cn1 [Example 214]
Request: // pick larger pEC50 from pair: A vs B Lab log: write the label of the selected item as the result.
Response: A
(A: 6.96, B: 6.07)

---

# System: TAZ nuclear translocation in SW1990 cells
# run.description: TAZ Nuclear Translocation Assay
# Format: cell-based
# test.parameters: Homo sapiens, 4 hours
pEC50: −log10 of the molar value.
property.measured: pEC50

In the examples that follow, each entry is paired with its recorded pEC50.
* O[C@H]1CC[C@@H](N2CCC3(CCN(c4nc(-c5ccncc5)nc5cnccc45)CC3)C2)C1 (single isomer, unassigned) | 6.24
* C#CC(C)(O)CN1CCC2(CCN(c3nc(-c4ccncc4)nc4cnccc34)CC2)C1 (stereo not shown) | 6.48

[1] COc1cncc2nc(-c3ccncc3)nc(N3CCC4(CCN(CC5(O)CCC5)C4)CC3)c12
[2] FC(F)(F)c1[nH]ncc1-c1nc(N2CCC3(CCNC3)CC2)c2ccncc2n1
Request: Identify the entry with the larger pEC50. Options: 1 and 2 Could you answer with the label of the item you picked?
Response: 1
(1: 6.92, 2: 5.14)

---

# measured.on: Human LATS2 catalytic domain (Homo sapiens (Human), UniProt Q9NRM7)
# Sequence (Q9NRM7 553-1088): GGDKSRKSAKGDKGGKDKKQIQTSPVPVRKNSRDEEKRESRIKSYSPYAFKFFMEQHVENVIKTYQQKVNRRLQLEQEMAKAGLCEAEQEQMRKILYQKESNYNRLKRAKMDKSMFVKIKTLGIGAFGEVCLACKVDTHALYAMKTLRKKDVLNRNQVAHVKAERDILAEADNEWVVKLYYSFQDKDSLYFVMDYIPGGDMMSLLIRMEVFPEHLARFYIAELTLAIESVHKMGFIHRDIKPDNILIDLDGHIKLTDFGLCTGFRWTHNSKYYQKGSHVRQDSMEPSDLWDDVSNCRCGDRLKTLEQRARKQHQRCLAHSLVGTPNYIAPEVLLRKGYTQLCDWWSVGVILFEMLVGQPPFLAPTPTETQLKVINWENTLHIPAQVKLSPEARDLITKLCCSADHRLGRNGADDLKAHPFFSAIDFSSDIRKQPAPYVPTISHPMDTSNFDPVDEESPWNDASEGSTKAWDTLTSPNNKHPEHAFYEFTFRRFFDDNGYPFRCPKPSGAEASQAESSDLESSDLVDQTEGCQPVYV
# Sequence (Q7L9L4 whole entry partner, the tested form may be a part): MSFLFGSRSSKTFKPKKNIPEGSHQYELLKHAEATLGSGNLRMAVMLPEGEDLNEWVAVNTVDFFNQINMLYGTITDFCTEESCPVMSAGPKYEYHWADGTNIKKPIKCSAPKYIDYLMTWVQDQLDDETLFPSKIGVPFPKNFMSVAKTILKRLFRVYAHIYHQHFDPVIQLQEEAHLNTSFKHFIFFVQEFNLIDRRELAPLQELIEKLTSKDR
# run.description: Standard LATS2 HTRF Assay
# Assay type: biochemical
# test.parameters: asterisk: Standard LATS2 HTRF Assay, 50 μM ATP, 0.2 nM LATS2
pKi: −log10 of the molar value.
property.measured: pKi

// solved cases for pKi follow
* Cc1cc2c(N3CCC4(CCNC4)CC3)nc(-c3ccncc3)nc2cn1 | 8.89
* N#CC1CC(N2CCC3(CCN(c4nc(-c5ccncc5)nc5cnccc45)CC3)C2)C1 (stereo not shown) | 8.99

[P] c1cc(-c2nc(N3CCC4(CC3)CCN(C3CCOCC3)C4)c3ccncc3n2)ccn1
[Q] c1cc(-c2nc(N3CCC4(CC3)CCN(C3COC3)C4)c3ccncc3n2)ccn1
[R] FC(F)(F)c1[nH]ncc1-c1nc(N2CCC3(CCNC3)CC2)c2ccncc2n1
[S] O=C1NCCC12CCN(c1nc(-c3ccncc3)nc3cnccc13)CC2
[T] O=C1CC2(CCN(c3nc(-c4ccncc4)nc4cnccc34)CC2)CN1
Request: Hello, I need these entries ordered by pKi, highest reading first. Thanks! Provide your answer as the labels ordered per the instruction.
Response: R, P, Q, S, T

---

# System: TAZ nuclear translocation in SW1990 cells
# run.description: TAZ Nuclear Translocation Assay
# Assay type: cell-based
# test.parameters: Homo sapiens, 4 hours
Where a name gives a salt, the structure may show the parent alone.
property.measured: EC50 (nM)

- c1cc(-c2nc(N3CCC4(CC3)CC3COCCN3C4)c3ccncc3n2)ccn1 (racemic) [Example 218]: 6800

[P] COc1cncc2nc(-c3ccncc3)nc(N3CCC4(CCNC4=O)CC3)c12 [Compound 279]
[Q] O[C@H]1CCC[C@@H]1N1CCC2(CCN(c3nc(-c4ccncc4)nc4cnccc34)CC2)C1 (single isomer, unassigned) [Compound 129]
Request: Which numeric EC50 is bigger, that of P or that of Q ? State the label of the item chosen.
Response: P
(P: 5300 nM, Q: 140 nM)

[1] Cc1n[nH]cc1-c1nc(N2CCC3(CCN(C)C3)CC2)c2cc(Cc3ccccn3)ncc2n1 [Example 238]
[2] c1cc(-c2nc(N3CCC4(CC3)CCN([C@@H]3CCOC3)C4)c3ccncc3n2)ccn1 (single isomer, unassigned) [Compound 112]
Request: Which value of EC50 is greater, the one for 1 or the one for 2 ? Refer to your chosen item by its label in the answer.
Response: 1
(1: 2300 nM, 2: 700 nM)

[A] Cc1[nH]ncc1-c1nc(N2CCC3(CC2)CCN([C@@H]2CC[C@@H]2O)C3)c2ccncc2n1 (single isomer, unassigned) [Example 230]
[B] COc1cncc2nc(-c3ccncc3)nc(N3CCC4(CCN(C)C4)CC3)c12 [Compound 252, formate]
[C] Cc1n[nH]cc1-c1nc(N2CCC3(CCN(C)C3)CC2)c2cc(Cc3cccnc3)ncc2n1 [Example 227]
[D] C#CCCN1CCC2(CCN(c3nc(-c4ccncc4)nc4cnccc34)CC2)C1 [Compound 256]
[E] Cc1[nH]ncc1-c1nc(N2CCC3(CCN(C)C3)CC2)c2ccnc(Cl)c2n1 [Compound 262]
Request: hey, can you rank those compounds up there by EC50? biggest number first please Answer by listing the labels in the order asked for.
Response: C, A, D, E, B

---

# measured.on: Human LATS2 catalytic domain (Homo sapiens (Human))
# run.description: LATS2 High ATP HTRF Assay
# Format: biochemical
# test.parameters: no asterisk: LATS2 High ATP HTRF Assay, 5000 μM ATP, 0.05 nM LATS2
Where a name gives a salt, the structure may show the parent alone.
property.measured: Ki (nM)

Some solved entries appear below for comparison.
* COC(=O)C1CC2(CCN(c3nc(-c4ccncc4)nc4cnccc34)CC2)CN1 (stereo not shown) | 1.95
* c1cc(-c2cc(N3CCC4(CCNC4)CC3)c3ccncc3n2)ncn1 [Example 201, trifluoroacetate] | 11.3
* COC[C@@H]1CC2(CCN(c3nc(-c4ccncc4)nc4cnccc34)CC2)CN1 (single isomer, unassigned) | 0.1
* F[C@H]1CNCC12CCN(c1nc(-c3ccncc3)nc3cnccc13)CC2 | 1.3
* c1cc(-c2cc3cnccc3c(N3CCC4(CCNC4)CC3)n2)ccn1 | 3.3
* c1cc(-c2nc(N3CCC4(CC3)CCN(C3CCCC3)C4)c3ccncc3n2)ccn1 [Compound 106, formate] | 0.053

[1] O=C(C1CC2(CCN(c3nc(-c4ccncc4)nc4cnccc34)CC2)CN1)N1CCOCC1 (stereo not shown)
[2] Cc1n[nH]cc1-c1nc(N2CCC3(CCNC3)CC2)c2ccnc(Cl)c2n1
[3] COc1cncc2nc(-c3cn[nH]c3C)nc(N3CCC4(CCN(CC(F)F)C4)CC3)c12
Request: Order the 3 compounds from highest to lowest Ki. # the answer lists labels in the order requested
Response: 1, 2, 3

---

# measured.on: Human LATS2 catalytic domain (Homo sapiens (Human), UniProt Q9NRM7)
# run.description: LATS2 High ATP HTRF Assay
# Type: biochemical
# test.parameters: no asterisk: LATS2 High ATP HTRF Assay, 5000 μM ATP, 0.05 nM LATS2
property.measured: Ki (nM)

Past entries and their recorded results:
• COc1cncc2nc(-c3c[nH]nc3C)nc(N3CCC4(CCN(CC(C)(C)O)C4)CC3)c12 = 0.047
• C[C@@H](O)CN1CCC2(CCN(c3nc(-c4ccncc4)nc4cnccc34)CC2)C1 (single isomer, unassigned) = 0.13
• c1cc(-c2nc(N3CCC4(CC3)CCN([C@H]3CCOC3)C4)c3ccncc3n2)ccn1 (single isomer, unassigned) = 0.82
• CC(C)(CO)N1CCC2(CCN(c3nc(-c4ccncc4)nc4cnccc34)CC2)C1 = 0.62
• CN1CCC2(CCN(c3nc(-c4ccncc4)nc4cnc(Cn5cc(Cl)cn5)cc34)CC2)C1 = 0.76
• FC1(F)CNCC12CCN(c1nc(-c3ccncc3)nc3cnccc13)CC2 = 2.7
• C[C@H](CO)N1CCC2(CCN(c3nc(-c4ccncc4)nc4cnccc34)CC2)C1 (single isomer, unassigned) = 0.58
• COC[C@H]1CC2(CCN(c3nc(-c4ccncc4)nc4cnccc34)CC2)CN1 (single isomer, unassigned) = 0.32

[P] c1ccc(CN2CCC3(CCN(c4nc(-c5ccncc5)nc5cnccc45)CC3)C2)cc1
[Q] COCC1CC2(CCN(c3nc(-c4ccncc4)nc4cncc(OC)c34)CC2)CN1 (stereo not shown)
[R] COc1cncc2nc(-c3ccncc3)nc(N3CCC4(CCN(CC(F)F)C4)CC3)c12
[S] FC(F)(F)Cc1nccc2c(N3CCC4(CCNC4)CC3)nc(-c3ccncc3)nc12
Request: Ordering criterion: Ki; begin with the maximum. Form field (ranking): labels in requested order.
Response: S, Q, P, R

[P] CC1CC2(CCN(c3nc(-c4ccncc4)nc4cnccc34)CC2)CN1 (stereo not shown)
[Q] CN1CCC2(CCN(c3nc(-c4ccncc4)nc4c(C#CC(C)(C)O)nccc34)CC2)C1
[R] COc1[nH]ncc1-c1nc(N2CCC3(CCNC3)CC2)c2ccncc2n1
[S] COCc1cncc2nc(-c3ccncc3)nc(N3CCC4(CCNC4)CC3)c12
Request: Arrange these compounds by their Ki, starting with the largest number. List the labels in the requested order.
Response: R, S, P, Q
(R: 8 nM, S: 1.9 nM, P: 0.58 nM, Q: 0.039 nM)

Origin of the recorded values: patent US20240174696A1
